Assay: Inhibition of RSV Long fusion protein assessed as protection against virus induced cytopathic effect in infected human Hep2 cells after 5 days by CCK8 assay
outcomeMeasure: EC50 (µM)

Worked cases, EC50 given:
>  <compound>
NCCNc1cc(N2CCS(=O)(=O)c3ccccc3C2)nc2ccccc12

>  <EC50 / µM>
0.011

$$$$
>  <compound>
NCCNc1cc(N2CCc3ccccc3C2)nc2ccccc12

>  <EC50 / µM>
2.3

$$$$
>  <compound>
NCCNc1cc(N2CCCc3ccccc3C2)nc2ccccc12

>  <EC50 / µM>
0.2

$$$$
>  <compound>
Cc1ccc2nc(N3CCC(F)(F)c4ccccc4C3)cc(NCCN)c2c1

>  <EC50 / µM>
0.062

$$$$
>  <compound>
NCC(O)CNc1cc(N2CCc3ccccc3C2)nc2ccccc12 (stereo unspecified)

>  <EC50 / µM>
0.22

$$$$

(1) Cc1ccc2nc(N3CCS(=O)(=O)c4ccccc4C3)cc(NCCCN)c2c1
(2) NC(=O)NCCNc1cc(N2CCc3ccccc3C2)nc2ccccc12
(3) CS(=O)(=O)c1ccc2nc(N3CCCc4ccccc4C3)cc(NCCN)c2c1
(4) Cc1ccc2nc(N3CC(=O)Nc4ccccc4C3)cc(NCCN)c2c1
(5) Cc1ccc2nc(N3CCS(=O)(=O)c4ccccc4C3)cc(NCCCCN)c2c1
Ask | Ascending by EC50, please. Your reply should list the labels following the order given in the request.
Reply | 1, 5, 4, 3, 2
(1: 0.001 µM, 5: 0.007 µM, 4: 0.31 µM, 3: 5.6 µM, 2: 15 µM)
